- SYSTEM_UNDER_TEST: T1, HLA DPB1*04:01 (human)
- T1 chain 1: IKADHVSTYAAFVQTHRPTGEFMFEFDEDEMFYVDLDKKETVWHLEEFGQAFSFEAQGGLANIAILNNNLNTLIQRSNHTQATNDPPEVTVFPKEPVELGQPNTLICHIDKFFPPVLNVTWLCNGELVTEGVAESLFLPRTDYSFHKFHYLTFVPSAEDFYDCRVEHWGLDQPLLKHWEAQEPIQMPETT
- T1 chain 2: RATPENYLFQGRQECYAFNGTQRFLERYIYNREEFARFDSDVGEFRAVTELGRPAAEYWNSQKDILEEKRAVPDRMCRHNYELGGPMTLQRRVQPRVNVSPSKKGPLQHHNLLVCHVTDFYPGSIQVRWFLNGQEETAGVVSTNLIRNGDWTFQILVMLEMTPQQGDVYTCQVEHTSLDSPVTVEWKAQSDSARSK
- ASSAY_EXPLANATION: competition with radiolabeled peptide, purified HLA
Where no end group is shown, it is not given here. [ ]: non-standard residue; d: D form. pY = N[C@@H](Cc1ccc(OP(=O)(O)O)cc1)C(=O)O
ENDPOINT_NAME: IC50

binder="KTKEGVL[pY]VGSKTKE (synthetic post-translationally modified 15-mer; also called Phospho-Y) [alpha-syn peptide aa32KTKEGVLYVGSKTKEaa46 phosphorylated at Y39]" result="937 nM"
